Value source: the supplement of paper PMC10307832

tested on: HOP-62; assay: relative viability (nuclei count vs DMSO), 5 days (fraction); higher = more cells survive; conditions: first compound 4 µM
Here, each record is paired with measured relative viability data.
Quick one: just the number, no unit, thanks!

Past entries and their recorded results:
INSERT INTO results (molecule, observedvalue) VALUES
  ('COc1cc(N2CCC(C(N)=O)CC2)ccc1Nc1nc(N)c(Cl)c(Nc2ccccc2S(=O)(=O)C(C)C)n1 [HG-5-88-01] + CC(=O)Nc1cccc(-n2c(=O)n(C3CC3)c(=O)c3c(Nc4ccc(I)cc4F)n(C)c(=O)c(C)c32)c1 [Trametinib] (partner 0.02 µM)', 0.383),
  ('C[C@@H]1CN(CC(=O)Nc2ccc3c(c2)Cc2cccc(-c4cc(=O)cc(N5CCOCC5)o4)c2S3)C[C@H](C)O1 + CCNC(=O)c1noc(-c2cc(C(C)C)c(O)cc2O)c1-c1ccc(CN2CCOCC2)cc1 [Luminespib] (partner 0.01 µM)', 0.907),
  ('COc1cc(N2CCC(C(N)=O)CC2)ccc1Nc1nc(N)c(Cl)c(Nc2ccccc2S(=O)(=O)C(C)C)n1 [HG-5-88-01] + C[C@@H](Oc1cc(-c2cnn(C3CCNCC3)c2)cnc1N)c1c(Cl)ccc(F)c1Cl [Crizotinib] (partner 1 µM)', 0.96),
  ('Clc1ccc(Nc2nnc(Cc3ccncc3)c3ccccc23)cc1 [Vatalanib] + O=C(c1cc(Cc2n[nH]c(=O)c3ccccc23)ccc1F)N1CCN(C(=O)C2CC2)CC1 [Olaparib] (partner 8 µM)', 0.419),
  ('C[C@@H]1CN(CC(=O)Nc2ccc3c(c2)Cc2cccc(-c4cc(=O)cc(N5CCOCC5)o4)c2S3)C[C@H](C)O1 + Cc1cc(Nc2cc(N3CCN(C)CC3)nc(Sc3ccc(NC(=O)C4CC4)cc3)n2)n[nH]1 [Tozasertib] (partner 0.1 µM)', 0.346),
  ('Clc1ccc(Nc2nnc(Cc3ccncc3)c3ccccc23)cc1 [Vatalanib] + Nc1ncn([C@H]2C[C@H](O)[C@@H](CO)O2)c(=O)n1 [Decitabine] (partner 2 µM)', 0.205),
  ('C[C@@H]1CN(CC(=O)Nc2ccc3c(c2)Cc2cccc(-c4cc(=O)cc(N5CCOCC5)o4)c2S3)C[C@H](C)O1 + CC(C)C[C@H](NC(=O)[C@H](Cc1ccccc1)NC(=O)c1cnccn1)B(O)O [Bortezomib] (partner 0.002 µM)', 1.02),
  ('Clc1ccc(Nc2nnc(Cc3ccncc3)c3ccccc23)cc1 [Vatalanib] + C[C@]1(O)C[C@@H](c2nc(-c3ccc4ccc(-c5ccccc5)nc4c3)c3c(N)nccn32)C1 [Linsitinib] (partner 1 µM)', 0.876);

Consider now this further molecule.
QUERY: Look up and state reported relative viability for COc1cc(N2CCC(C(N)=O)CC2)ccc1Nc1nc(N)c(Cl)c(Nc2ccccc2S(=O)(=O)C(C)C)n1 [HG-5-88-01] + COc1cc2c(Oc3ccc(NC(=O)C4(C(=O)Nc5ccc(F)cc5)CC4)cc3F)ccnc2cc1OCCCN1CCOCC1 [Foretinib] (partner 0.25 µM)
RESULT: 1.3
